Reported protein stability index values follow for various sequences
method.notes: protein stability index of a GFP-peptide fusion (yeast GPS) (PSI 1-4); higher = more stable; sorted into four equal gates, so the index is relative within each strain
measurement.context: doa10∆
Kindly provide the number alone.

residue.sequence	protein stability index
NLEPLIAKLVAVLNVSP [NUT1]	1.47
TEVIIRATRTQDVLGEN [RPS3]	3.42
SNSDNCPEEFAESMCQE [SNF5]	3.25
KLYFQLFLNTGCLSVLY [SRP68]	1.47
ELALKTLSKTTDSSALT [PRE9]	2.62

Item AEHSQNKIDQSLQYIER [YJL041W/NSP1] : provide protein stability index
3.17

====

method.notes: protein stability index of a GFP-peptide fusion (yeast GPS) (PSI 1-4); higher = more stable; sorted into four equal gates, so the index is relative within each strain
measurement.context: ubr1∆
reported.metric: protein stability index

Recorded results for 10 sequences are shown here.
residue.sequence	protein stability index
HRSKKDQDQYLEIAKDF [IRR1]	3.6
FHIACSVGNLEVVKSLY [NAS6]	2.67
LIEEEVEQDEGQCRTEL [YCS4]	3.45
LPMDTNLFKINSIDVPI [YMR129W/POM152]	1.95
GQSSSIQSSLMTNLTYF [YCS4]	2.95
SNYSRTMTISHLLLGFQ [YJL039C/NUP192]	2.1
FSAPIRPDIVHTVFTSV [RPL4A]	2.16
SNSDNCPEEFAESMCQE [SNF5]	3.01
LSILNEIKKVTQIVAKF [SIN4]	2.87
YLLSIWVKKFKWAGIKT [CYT1]	2.29

Item CERRSTLKLQDTRITPS [PRE6] : provide protein stability index
2.82

Item SRDLDISSSTQCLRFLK [POP6] : provide protein stability index
3.05

Item SSDGALCMDSSYIGTII [POP1] : provide protein stability index
3.23

Item RLLAKDAMIAQRSKKIQ [DIS3] : provide protein stability index
1.59

====

method.notes: protein stability index of a GFP-peptide fusion (yeast GPS) (PSI 1-4); higher = more stable; sorted into four equal gates, so the index is relative within each strain
measurement.context: doa10∆
Reported protein stability index values follow for various sequences
Kindly provide the number alone.

Item PDGLGEVGMKVQSGQIY [RET1] : provide protein stability index
3.27

Item SVIQLCGGINDSIPYPQ [ECM29] : provide protein stability index
3.16

Item TEHLTELSDNEENFEAT [YCG1] : provide protein stability index
2.87

====

method.notes: protein stability index of a GFP-peptide fusion (yeast GPS) (PSI 1-4); higher = more stable; sorted into four equal gates, so the index is relative within each strain
measurement.context: doa10∆
Classify by protein stability index. Ranges: band 1 = under 2, band 2 = from 2 up to 3, band 3 = 3 and over

Worked cases, answers included:
residue.sequence	class.assignment
LAKAVAATIGANFIFSP [RPT4]	band 2
RILKNVSPNDNNSANNN [YMR153W/NUP53]	band 2
TVENPLRNWEELNIIPR [PRP28]	band 1
TEKMEEQLDLLSAILDP [MED11]	band 3
RDDGKRELLVEGYGLRD [RPO31]	band 2

For the record ATDVEARAVQDNGESAF [RPL13A] , report the class its protein stability index corresponds to.
band 3

For the record IDREGNARKVVGASVVV [RPS12] , report the class its protein stability index corresponds to.
band 2

For the record YLLSIWVKKFKWAGIKT [CYT1] , report the class its protein stability index corresponds to.
band 2

For the record YDSRSGTHNMYKEIRDV [RPL20A] , report the class its protein stability index corresponds to.
band 3

The values you see were collected from the supplement of paper PMC9732359.
